Method: Cell viability (MTT), drugs alone
Condition Info: human
Property: viability at 24 h, 10 µM; scope: individual compounds
Units required after the number.

Quick one: viability at 24 h, 10 µM for C=CC[C@@H]1/C=C(\C)C[C@H](C)C[C@H](OC)[C@H]2O[C@@](O)(C(=O)C(=O)N3CCCC[C@H]3C(=O)O[C@H](/C(C)=C/[C@@H]3CC[C@@H](O)[C@H](OC)C3)[C@H](C)[C@@H](O)CC1=O)[C@H](C)C[C@@H]2OC ? 50.1%

---
Quick one: viability at 24 h, 10 µM for C=C/C=C/C[C@@H](C)[C@@H](O)[C@H]1C(=O)N[C@@H](CC)C(=O)N(C)CC(=O)N(C)[C@@H](CC(C)C)C(=O)N[C@@H](C(C)C)C(=O)N(C)[C@@H](CC(C)C)C(=O)N[C@@H](C)C(=O)N[C@H](C)C(=O)N(C)[C@@H](CC(C)C)C(=O)N(C)[C@@H](CC(C)C)C(=O)N(C)[C@@H](C(C)C)C(=O)N1C ? 62.1%
